Data credit: PubChem BioAssay (NCI)

test system: HL-60(TB) leukemia; assay: NCI-60 one-dose screen, 48 h (100 = growth as untreated, 0 = no growth, -100 = all killed); conditions: 10 µM unless noted
About 83,000 compounds went through this panel and 20% of them were active in at least one assay; those are over-represented in the sample as a whole.
value.type: growth (%)
Report the value in % with no unit label.

- Cc1ccc(C2=Nc3c(N)nc(N)nc3NC(c3cccc(Nc4ccnc5cc(C(F)(F)F)ccc45)c3)C2)cc1 (stereo not given): -11.3

// field: growth; key: Cc1[nH]c(C2CC(c3ccc(C(F)(F)F)c(F)c3)=NN2C)c(C)c1C(=O)NCC(F)(F)F (stereo not given) ; value = 97.1

// field: growth; key: "COc1ccc(/C(C)=C(\c2ccc(OCCN3CCCCCC3)cc2)c2ccc(OC(=O)C3CCCCC3)cc2)cc1" ; value = -41.1

// field: growth; key: "c1cc(OCCN2CCCC2)ccc1CNc1ccc2nc(CCC3CCCCC3)[nH]c2c1" ; value = -4.69

// field: growth; key: "CSc1nc2ccc(C)cc2cc1/C=N/O" ; value = 91.6

// field: growth; key: "COc1ccc(-c2nc(/C=N/Nc3cc(C)nc4ccc(Br)cc34)c(C)o2)cc1" ; value = -51.5

// field: growth; key: "c1ccc(CNc2ncnc3scc(-c4cccs4)c23)nc1" ; value = 58.2

// field: growth; key: "Oc1ccc(-c2nc3ccc4[nH]ncc4c3c3c2CCCC3)c(F)c1" ; value = 0.236

// field: growth; key: "N=C(N)c1ccc(-c2ccc(-c3ccc4ccccc4c3)s2)cc1" ; value = 86.7

// field: growth; key: "CCOC(=O)c1ccc2c(c1)nc(-c1ccccc1)n2C1CCCCC1" ; value = 63.1

* * *

test system: UACC-257 melanoma; test: NCI-60 one-dose screen, 48 h (100 = growth as untreated, 0 = no growth, -100 = all killed); conditions: 10 µM unless noted
This is part of a sample that, as a whole, favours compounds with a hit. Of some 83,000 tested, about 20% had one in any assay.
value.type: growth (%)
Report the value in % with no unit label.

Reference set, count: 3
* CCCCN(CCCC)CC(O)c1ccccc1 (configuration not stated) | 106
* O=C(O)C1[O][Sb][O]C1C(=O)O (configuration not stated) | 98.2
* NC(Cc1ccc(O)cc1)C(=O)N/N=C/c1ccc(N(CCCl)CCCl)cc1 (configuration not stated) | 93.6

// field: growth; key: "O1[As]2O[As]3O[As]1O[As](O2)O3" ; value = -22.1

// field: growth; key: COc1ccc(NP2(=O)OCC(C)(N)CO2)cc1 (configuration not stated) ; value = 97.6

// field: growth; key: "O=C(NCCNC(=O)c1ccc([As](O)O)cc1)c1ccc([As](O)O)cc1" ; value = 103

// field: growth; key: ClCCN(CCCl)C(c1ccccc1)c1ccc(Cl)cc1 (configuration not stated) ; value = 90.9

// field: growth; key: "CC(/C=N/N=C(N)N)=N/N=C(N)N" ; value = 113

// field: growth; key: "Cc1nnc([S-])s1.[Au+].c1ccc([PH+](c2ccccc2)c2ccccc2)cc1" ; value = -12.4

// field: growth; key: COc1cc(C2CC(=O)Nc3nc(N)[se]c32)c(OC)c2c1OCO2 (configuration not stated) ; value = 116

// field: growth; key: CNC(C)Cc1ccccc1 (configuration not stated) (tested in a mixture with another compound) ; value = 109

// field: growth; key: "CCC(C)(C)O" ; value = 119

* * *

Overview of recorded growth for various compounds
system: HL-60(TB) leukemia; assay: NCI-60 one-dose screen, 48 h (100 = growth as untreated, 0 = no growth, -100 = all killed); details: 10 µM unless noted
The panel holds about 83,000 compounds, 20% with a hit somewhere; the sample as a whole holds those more often.
Report the value in % with no unit label.

• Nc1cc(C(=O)O)cc(-n2c(O)c(C=C3N=c4ccccc4=N3)sc2=S)c1 = 101
• C[N+]1=C(/C=C/c2ccccc2Cl)C(C)(C)c2ccccc21 = 53.5
• CCOC(=O)C1=NN(c2ccccc2)C(=O)/C1=C\N1C(=O)/C(=C/c2cccc(O)c2)SC1=S = 93.2
• N/C(=N\c1nc2ccccc2s1)NC(=O)Nc1ccccc1 = 12.8

Okay, now this compound:
// field: growth; key: "CN(C)c1ccc(-c2c(C#N)c(N)n3nc(N)c(C#N)c3c2C#N)cc1" ; value = 95.7

* * *

test system: HL-60(TB) leukemia; assay: NCI-60 one-dose screen, 48 h (100 = growth as untreated, 0 = no growth, -100 = all killed); conditions: 10 µM unless noted
This is part of a sample that, as a whole, favours compounds with a hit. Of some 83,000 tested, about 20% had one in any assay. Calls of active or inactive are those of the source. Rule for the calls: active = growth percent below 10; inactive = the rest.
value.type: growth

Reference set, count: 6
• COc1ccc(/C=C2\SC(=O)N(Cc3cc(=O)oc4ccc(OC)cc34)C2=O)cc1 = 90.9% (inactive)
• C=CCN1C(=O)c2cccc3c(-c4ccc5c(c4)ncn5C4CCCCC4)ccc(c23)C1=O = 25.5% (inactive)
• COc1ccc(C2=NNC(c3cc(Cc4ccc(O)c(C5CC(c6ccc(OC)cc6)=NN5)c4)ccc3O)C2)cc1 (stereo not given) = 17.2% (inactive)
• COc1ccc(-c2ccc(-c3ccc(C(=N)N)nc3)s2)cc1 = -47.3% (active)
• CCOc1ccc(/C=C\C(=O)O)cc1 = 82.9% (inactive)
• O=C1Nc2ccc(Cl)cc2/C1=N/N=C(c1ccccc1)c1ccccc1 = 91.4% (inactive)

// field: growth; key: "CCCCCCCCCCCCCCCCCC(=O)[O][Sn]([CH2]CCC)([CH2]CCC)[CH2]CCC" ; value = -18.5% (active)

// field: growth; key: "CCCCCCCCCCCCN1C(C)=CS/C1=C\C=C\c1scc(C)[n+]1CCCCCCCCCCCC" ; value = -32.3% (active)

// field: growth; key: NC(N)=N/N=C(\c1ccccc1)C(O)c1ccccc1 (stereo not given) ; value = 96.7% (inactive)

// field: growth; key: "O=C(CSc1nnc(-c2ccc(Cl)cc2)o1)Nc1ccc(C(=O)/C=C/c2ccc(Cl)cc2)cc1" ; value = 84.4% (inactive)

* * *

Test system: HL-60(TB) leukemia
Assay: NCI-60 one-dose screen, 48 h (100 = growth as untreated, 0 = no growth, -100 = all killed)
Conditions: 10 µM unless noted
Experimental: Growth inhibition of the HL-60(TB) human tumor cell line is measured as a screen for anti-cancer activity. Cells are grown in 96 well plates and exposed to the test compound for 48 hours. Compounds are tested at a single concentration, which is 10^-5 M for most compounds. The reported endpoint is percent growth (GI% or GIPRCNT), where numbers from 0 - 100% represent growth inhibition, and numbers from -100% - 0 represent cell death. For example, a value of 40 represents 60% growth inhibition. […]
Compounds without any hit were thinned out: in the full panel of roughly 83,000, 20% have a hit.
The threshold is inclusive: growth of exactly 90% counts as YES; values below receive NO.

• O=C(/C=C(/C=C/c1csc2ccccc12)OB(F)F)/C=C/c1csc2ccccc12 = NO
• CC(C)OC(=O)[C@H](C)N[P@@](=O)(OC[C@@]1(C)O[C@@H](n2cc(F)c(N)nc2=O)C[C@@H]1O[P@](=O)(N[C@@H](C)C(=O)OC(C)C)Oc1ccccc1)Oc1ccccc1 = YES
• CCCOc1ccc2nc(NC(=O)OC)[nH]c2c1 = NO

Next item in the queue.
Exercise: In plain terms: is recorded growth at least 90% for NC(C(=O)O)c1ccc([N+](=O)[O-])cc1 (stereo not given) ?
Solution: YES

* * *

Tested on: UACC-62 melanoma
Assay: NCI-60 one-dose screen, 48 h
Conditions: 10 µM unless noted
Protocol: Growth inhibition of the UACC-62 human tumor cell line is measured as a screen for anti-cancer activity. Cells are grown in 96 well plates and exposed to the test compound for 48 hours. Compounds are tested at a single concentration, which is 10^-5 M for most compounds. The reported endpoint is percent growth (GI% or GIPRCNT), where numbers from 0 - 100% represent growth inhibition, and numbers from -100% - 0 represent cell death. For example, a value of 40 represents 60% growth inhibition. […]
This is part of a sample that, as a whole, favours compounds with a hit. Of some 83,000 tested, about 20% had one in any assay. Active and inactive are the calls of the source. The calls were made as follows: active = growth percent below 10; inactive = the rest.
Hi! Could you answer with just one of these? active, inactive

Examples with answers:
• O=C(CC1(O)C(=O)Nc2ccc(F)cc21)c1ccc(C(=O)NCC2CCC3(CC2)OOC2(CCCCC2)OO3)cc1 (stereo not given) = inactive
• Nc1cccc(CC(=O)Nc2ccc(S(=O)(=O)F)cc2)c1 = inactive
• c1ccc(-c2ccc3ccccc3[o+]2)cc1 = inactive
• C[C@@H]1O[C@@H](O[C@H]2CC[C@@]3(C)[C@H](CCC4[C@@H]3C(O)C[C@]3(C)[C@@H](c5ccc(=O)oc5)CC[C@]43O)C2)[C@H](O)[C@H](O)[C@H]1O (stereo not given in full) = active
• O=C(Nc1ccc(S(=O)(=O)F)cc1)Oc1ccccc1 = inactive

Exercise: I'd appreciate the recorded outcome for "O=S(=O)(F)c1ncnc2nc[nH]c12" from this test.
Solution: inactive

Exercise: I'd appreciate the recorded outcome for "CC(=O)Nc1ccc(C=C2C(=O)NC(=O)NC2=O)cc1" from this test.
Solution: inactive

Exercise: I'd appreciate the recorded outcome for "CC1(C)N=C(N)N=C(N)N1c1ccc(CCCCc2ccc(Cl)cc2S(=O)(=O)F)c(Cl)c1" from this test.
Solution: inactive

Exercise: I'd appreciate the recorded outcome for CCCCCCCCCCCCOc1ccc(C(=O)Oc2ccc(CSP3(=O)OCC4OC(n5cnc6c(N)ncnc65)C(F)C4OP(=O)(O)OCC4OC(n5ccc(=O)[nH]c5=O)C(F)C4O3)cc2)cc1 (stereo not given) from this test.
Solution: inactive

Exercise: I'd appreciate the recorded outcome for "O=C1c2ccccc2C(=O)N1[N+](=O)[O-]" from this test.
Solution: inactive

Exercise: I'd appreciate the recorded outcome for "CN1CC2CCC(C1)C2=O" from this test.
Solution: inactive

Exercise: I'd appreciate the recorded outcome for "Oc1ccccc1OB(Oc1ccccc1O)N(CCCl)CCCl" from this test.
Solution: inactive

Exercise: I'd appreciate the recorded outcome for O=C1C=CC(=O)C2C1C1(Cl)C(Cl)=C(Cl)C2(Cl)C1(Cl)Cl (stereo not given) from this test.
Solution: inactive

Exercise: I'd appreciate the recorded outcome for C=CC(O)CN1CC1CC (stereo not given) from this test.
Solution: inactive

Exercise: I'd appreciate the recorded outcome for "[Br][Pb]([c]1ccccc1)([c]1ccccc1)[c]1ccccc1" from this test.
Solution: active

Exercise: I'd appreciate the recorded outcome for "O=C(CF)N(O)c1ccc(/C=C/c2ccccc2)cc1" from this test.
Solution: inactive

Exercise: I'd appreciate the recorded outcome for "CCC(C)(C)O" from this test.
Solution: inactive

Exercise: I'd appreciate the recorded outcome for CCCCCCCC(=O)OCC/C=C/C1OC1C1OC(=O)/C=C\C=C\c2nc(oc2C)/C=C(/C)CCC2OC2C1OC(=O)NC(C)=O (stereo not given) from this test.
Solution: active

Exercise: I'd appreciate the recorded outcome for "Nc1c(Br)cc2c3c(cccc13)-c1ccccc1-2" from this test.
Solution: inactive

Exercise: I'd appreciate the recorded outcome for "CO[C@@H]1[C@H](OC(=O)NC(=O)CCl)CC[C@]2(CO2)[C@H]1[C@@]1(C)O[C@@H]1CC=C(C)C" from this test.
Solution: inactive

Exercise: I'd appreciate the recorded outcome for C[C@]12CC[C@H](OC3OC(O)C(O)C(O)C3O)C=C1CCC1C2CC[C@]2(C)[C@@H](c3ccc(=O)oc3)CC[C@]12O (stereo not given in full) from this test.
Solution: active

Exercise: I'd appreciate the recorded outcome for "CCN(CC)c1ccc(C=C2C(=O)NC(=S)NC2=O)cc1" from this test.
Solution: inactive
